- Test system: Escherichia coli
- assayProtocol: Binding affinity to Escherichia coli AlkB expressed in Escherichia coli BL21(DE3) at 15 uM after 4 hrs by nondenaturing ESI-MS analysis
The source made the active and inactive calls. The calls are words filed in the database; no cut-off is given here.
Return exactly one item of Yes for active, No for inactive

{"columns": ["chemicalString", "testSystem", "labelValue"],
 "data": [
  ["O=C(O)C(=O)N[C@@H](CSSc1cccc([N+](=O)[O-])c1)C(=O)O", "Escherichia coli", "Yes"]
]}

IN: Could you kindly confirm the outcome this assay logged for O=C(O)C(=O)N[C@@H](CSSc1ccccc1O)C(=O)O ?
OUT: Yes

IN: Could you kindly confirm the outcome this assay logged for O=C(O)C(=O)N[C@@H](CSSc1cccc(O)c1)C(=O)O ?
OUT: Yes

IN: Could you kindly confirm the outcome this assay logged for O=C(O)C(=O)N[C@@H](CS)C(=O)O ?
OUT: No
